Data origin: ChEMBL document CHEMBL1275497

Listed here: items and their measured kcat.
- Test system: Escherichia coli
- ASSAY EXPLANATION: Activity of Escherichia coli 2138 beta-lactamase KPC-2 by spectrophotometry
PROPERTY: kcat (s⁻¹)

{"columns": ["MOLECULE", "UNIT INFO", "VALUE MEASURED"],
 "data": [
  ["CC(=O)OCC1=C(C(=O)O)N2C(=O)[C@@H](NC(=O)Cc3cccs3)[C@H]2SC1", "s⁻¹", 106],
  ["C[C@@H](O)[C@H]1C(=O)N2C(C(=O)O)=C(SCCNC=N)C[C@H]12 [IMIPENEM ANHYDROUS]", "s⁻¹", 20],
  ["CC1(C)S[C@@H]2[C@H](NC(=O)[C@H](N)c3ccccc3)C(=O)N2[C@H]1C(=O)O", "s⁻¹", 20],
  ["CO/N=C(\\C(=O)N[C@@H]1C(=O)N2C(C(=O)O)=C(COC(C)=O)CS[C@H]12)c1csc(N)n1", "s⁻¹", 66],
  ["CO/N=C(\\C(=O)N[C@@H]1C(=O)N2C(C(=O)[O-])=C(C[n+]3cccc4c3CCC4)CS[C@H]12)c1csc(N)n1", "s⁻¹", 12],
  ["CC1(C)S[C@@H]2[C@H](NC(=O)Cc3ccccc3)C(=O)N2[C@H]1C(=O)O", "s⁻¹", 45],
  ["C[C@H]1[C@H](NC(=O)/C(=N\\OC(C)(C)C(=O)O)c2csc(N)n2)C(=O)N1S(=O)(=O)O", "s⁻¹", 3],
  ["CO/N=C(\\C(=O)N[C@@H]1C(=O)N2C(C(=O)O)=C(COC(N)=O)CS[C@H]12)c1ccco1", "s⁻¹", 66],
  ["CCN1CCN(C(=O)N[C@@H](C(=O)N[C@@H]2C(=O)N3[C@@H]2SC(C)(C)[C@@H]3C(=O)O)c2ccccc2)C(=O)C1=O", "s⁻¹", 40]
]}

###

- Tested on: Enterobacter cloacae
- ASSAY EXPLANATION: Antimicrobial activity against blaKPC-2, blaKLUC-2 and blaTEM-1 producing Enterobacter cloacae 7506 by Etest method
- Assay type: functional
Listed here: items and their measured MIC.

{"columns": ["COMPOUND", "MIC"],
 "data": [
  ["CC1(C)S[C@@H]2[C@H](NC(=O)[C@H](C(=O)O)c3ccsc3)C(=O)N2[C@H]1C(=O)O", "> 256 µg/mL"],
  ["CCN1CCN(C(=O)N[C@@H](C(=O)N[C@@H]2C(=O)N3[C@@H]2SC(C)(C)[C@@H]3C(=O)O)c2ccccc2)C(=O)C1=O", "> 256 µg/mL"],
  ["C[C@@H](O)[C@H]1C(=O)N2C(C(=O)O)=C(SCCNC=N)C[C@H]12 [IMIPENEM ANHYDROUS]", "3 µg/mL"],
  ["CC1(C)S[C@@H]2[C@H](NC(=O)[C@H](N)c3ccc(O)cc3)C(=O)N2[C@H]1C(=O)O", "> 256 µg/mL"],
  ["CC(C)(O/N=C(\\C(=O)N[C@@H]1C(=O)N2C(C(=O)[O-])=C(C[n+]3ccccc3)CS[C@H]12)c1csc(N)n1)C(=O)O", "32 µg/mL"],
  ["CO/N=C(\\C(=O)N[C@@H]1C(=O)N2C(C(=O)O)=C(COC(C)=O)CS[C@H]12)c1csc(N)n1", "> 32 µg/mL"]
]}

###

- System: Escherichia coli
- ASSAY EXPLANATION: Antimicrobial activity against Escherichia coli TOP10 by Etest method
- Type: functional
PROPERTY: MIC (µg/mL)

{"columns": ["COMPOUND", "UNIT INFO", "VALUE MEASURED"],
 "data": [
  ["CC1(C)S[C@@H]2[C@H](NC(=O)[C@H](N)c3ccc(O)cc3)C(=O)N2[C@H]1C(=O)O", "µg/mL", 3],
  ["C[C@H]1[C@H](NC(=O)/C(=N\\OC(C)(C)C(=O)O)c2csc(N)n2)C(=O)N1S(=O)(=O)O", "µg/mL", 0.047],
  ["CC(C)(O/N=C(\\C(=O)N[C@@H]1C(=O)N2C(C(=O)[O-])=C(C[n+]3ccccc3)CS[C@H]12)c1csc(N)n1)C(=O)O", "µg/mL", 0.19],
  ["CC1(C)S[C@@H]2[C@H](NC(=O)[C@H](C(=O)O)c3ccsc3)C(=O)N2[C@H]1C(=O)O", "µg/mL", 1.5],
  ["CCN1CCN(C(=O)N[C@@H](C(=O)N[C@@H]2C(=O)N3[C@@H]2SC(C)(C)[C@@H]3C(=O)O)c2ccccc2)C(=O)C1=O", "µg/mL", 0.75],
  ["CO/N=C(\\C(=O)N[C@@H]1C(=O)N2C(C(=O)O)=C(COC(C)=O)CS[C@H]12)c1csc(N)n1", "µg/mL", 0.047],
  ["C[C@@H](O)[C@H]1C(=O)N2C(C(=O)O)=C(SCCNC=N)C[C@H]12 [IMIPENEM ANHYDROUS]", "µg/mL", 0.19]
]}

###

- System: Escherichia coli
- ASSAY EXPLANATION: Antimicrobial activity against Escherichia coli J53 by Etest method
- Format: functional

{"columns": ["MOLECULE", "MIC"],
 "data": [
  ["CCN1CCN(C(=O)N[C@@H](C(=O)N[C@@H]2C(=O)N3[C@@H]2SC(C)(C)[C@@H]3C(=O)O)c2ccccc2)C(=O)C1=O", "0.38 µg/mL"],
  ["CC(C)(O/N=C(\\C(=O)N[C@@H]1C(=O)N2C(C(=O)[O-])=C(C[n+]3ccccc3)CS[C@H]12)c1csc(N)n1)C(=O)O", "0.064 µg/mL"],
  ["CO/N=C(\\C(=O)N[C@@H]1C(=O)N2C(C(=O)O)=C(COC(C)=O)CS[C@H]12)c1csc(N)n1", "0.032 µg/mL"],
  ["C[C@@H](O)[C@H]1C(=O)N2C(C(=O)O)=C(SCCNC=N)C[C@H]12 [IMIPENEM ANHYDROUS]", "0.094 µg/mL"],
  ["CC1(C)S[C@@H]2[C@H](NC(=O)[C@H](N)c3ccc(O)cc3)C(=O)N2[C@H]1C(=O)O", "3 µg/mL"],
  ["C[C@H]1[C@H](NC(=O)/C(=N\\OC(C)(C)C(=O)O)c2csc(N)n2)C(=O)N1S(=O)(=O)O", "< 0.016 µg/mL"],
  ["CC1(C)S[C@@H]2[C@H](NC(=O)[C@H](C(=O)O)c3ccsc3)C(=O)N2[C@H]1C(=O)O", "1.5 µg/mL"]
]}

###

Listed here: items and their measured Km.
- Tested on: Escherichia coli
- ASSAY EXPLANATION: Activity of Escherichia coli 2138 beta-lactamase KPC-2 by spectrophotometry

{"columns": ["COMPOUND", "UNIT INFO", "Km"],
 "data": [
  ["CO/N=C(\\C(=O)N[C@@H]1C(=O)N2C(C(=O)O)=C(COC(N)=O)CS[C@H]12)c1ccco1", "µM", 160],
  ["CO/N=C(\\C(=O)N[C@@H]1C(=O)N2C(C(=O)[O-])=C(C[n+]3cccc4c3CCC4)CS[C@H]12)c1csc(N)n1", "µM", 251],
  ["CC1(C)S[C@@H]2[C@H](NC(=O)[C@H](N)c3ccccc3)C(=O)N2[C@H]1C(=O)O", "µM", 29],
  ["CCN1CCN(C(=O)N[C@@H](C(=O)N[C@@H]2C(=O)N3[C@@H]2SC(C)(C)[C@@H]3C(=O)O)c2ccccc2)C(=O)C1=O", "µM", 51],
  ["CC1(C)S[C@@H]2[C@H](NC(=O)Cc3ccccc3)C(=O)N2[C@H]1C(=O)O", "µM", 44],
  ["CC(=O)OCC1=C(C(=O)O)N2C(=O)[C@@H](NC(=O)Cc3cccs3)[C@H]2SC1", "µM", 141],
  ["C[C@H]1[C@H](NC(=O)/C(=N\\OC(C)(C)C(=O)O)c2csc(N)n2)C(=O)N1S(=O)(=O)O", "µM", 35],
  ["C[C@@H](O)[C@H]1C(=O)N2C(C(=O)O)=C(SCCNC=N)C[C@H]12 [IMIPENEM ANHYDROUS]", "µM", 88],
  ["CO/N=C(\\C(=O)N[C@@H]1C(=O)N2C(C(=O)O)=C(COC(C)=O)CS[C@H]12)c1csc(N)n1", "µM", 174]
]}
